Tested on: MAP4K4
measurementConditions: concentration: 1 μM, replicates: in singlicate; n = 1;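 note: KINOMEscan kinase panel screen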
Each record here notes measured %Inh.
Report the figure in % without appending any unit label.

Example entries begin here.
CCS(=O)(=O)c1ccc(OC)c(Nc2nccc(-c3c(-c4cccc(NC(=O)c5c(F)cccc5F)c4)nn4ncccc34)n2)c1 : 3
Cc1ccc(S(=O)(=O)Nc2ccc(Nc3nccc(Nc4cccc5[nH]ncc45)n3)cc2)cc1 : 0

Please look at the following compound next.
Entry `O=C(Nc1ccccc1F)NC1CCN(c2ccnc(Nc3ccc(F)cc3)n2)CC1` — recorded %Inh = 0

###

Tested on: CDK4
measurementConditions: concentration: 1 μM, replicates: in singlicate; n = 1
Each record here notes measured %Inh.
Report the figure in % without appending any unit label.

Entry `Cc1cccc(NC(=O)Nc2ccc(Oc3ncnc4ccn(C)c34)cc2)c1` — recorded %Inh = 0

Entry `COc1ccc(-c2coc3ccc(-c4nnc(SCc5ccc(OC)c(C(F)(F)F)c5)o4)cc23)cc1` — recorded %Inh = 0

Entry O=C(Nc1cccc(-c2nn3ccccc3c2-c2ccnc(Nc3cccc(F)c3)n2)c1)c1c(F)ccc(F)c1Cl [GSK357952] — recorded %Inh = 53

Entry Cl.c1ccc(-c2ccc3c(Nc4ccc5[nH]ccc5c4)ccnc3c2)nc1 [GW440138] — recorded %Inh = 35

Entry COc1cc(Nc2nccc(-c3c(-c4cccc(NC(=O)c5c(F)cccc5F)c4)nn4ccccc34)n2)cc(OC)c1OC [GSK323521] — recorded %Inh = 7

Entry c1ccc(-c2n[nH]cc2Nc2ccnc3ccccc23)nc1 [GW694077] — recorded %Inh = 37

Entry COc1ccc(CNC(=O)NC2CCN(c3ccnc(Nc4ccc(F)cc4)n3)CC2)cc1 [GSK1379788] — recorded %Inh = 20

Entry CSc1cccc2c(-c3ccncn3)c(-c3ccc(F)cc3)nn12 [GW514786] — recorded %Inh = 15

###

Tested on: LIMK2
measurementConditions: concentration: 1 μM, replicates: in singlicate; n = 1
Class yes (1): %Inh at least 1%. Class no (0): %Inh below 1%.

These recorded examples may help you get a feel for the data.
COc1cc(Nc2nccc(N3CCC(NC(=O)Nc4cccc(C(C)=O)c4)C3)n2)cc(OC)c1OC (centres unmarked) : yes (1)
Cn1cc(-c2[nH]c3cc(NC(=O)[C@H](N)C4CCCCC4)cc4c3c2C=NNC4=O)cn1 : yes (1)
COc1cccc(C2=C(Nc3ccc(Cl)c(C(=O)O)c3)C(=O)NC2=O)c1 : no (0)
Cc1ccc(C(=O)Nc2ccc(Nc3ccnc4cc(-c5nccs5)ccc34)cc2O)cc1.Cl : no (0)
COc1cccc(NC(=O)NC2CCN(c3ccnc(Nc4cc(OC)c(OC)c(OC)c4)n3)C2)c1 (centres unmarked) : yes (1)
Fc1ccc(-c2ncn(C3CCNCC3)c2-c2ccnc(Oc3ccc(-c4ccccc4)cc3)n2)cc1 : no (0)
O=C(Nc1cccc(-c2nn3ncccc3c2-c2ccnc(Nc3ccccc3)n2)c1)c1c(F)cccc1F : no (0)
CN(C)Cc1ccc(-c2ccc3c(Nc4ccc(Oc5ccccn5)cc4)ccnc3c2)o1 : no (0)
Cn1cc(-c2ccc3c(c2)CCN3C(=O)Cc2cccc(Cl)c2)c2c(N)ncnc21 : yes (1)
COc1ccc(-c2coc3ccc(-c4nnc(SCc5ccc(OC)c(C(F)(F)F)c5)o4)cc23)cc1 : yes (1)

q: # bool: %Inh of `O=C(Nc1ccccc1F)NC1CCN(c2ccnc(Nc3ccc(F)cc3)n2)CC1` >= 1%
a: yes (1)

###

Each record here notes measured %Inh.
System: STK16
measurementConditions: concentration: 1 μM, replicates: in singlicate; n = 1
Report the figure in % without appending any unit label.

COc1cc(Nc2ncc3c(C)nc(-c4cc5ccccc5[nH]4)n3n2)cc(OC)c1OC : 86
C[C@@H](Oc1cc(-n2cnc3cc(-c4ccnc(NCCS(C)(=O)=O)c4)ccc32)sc1C(N)=O)c1ccccc1Cl : 27

Entry `COc1ccc(CNC(=O)NC2CCN(c3ccnc(Nc4ccc(F)cc4)n3)CC2)cc1` — recorded %Inh = 9

Entry `O=C(Nc1n[nH]c2cc(-c3ccoc3)ccc12)C1CC1` — recorded %Inh = 21

Entry `Nc1n[nH]c2cnc(-c3ccccc3)cc12` — recorded %Inh = 45

Entry `O=C(Nc1cccc(-c2nn3ccccc3c2-c2ccnc(Nc3cccc(F)c3)n2)c1)c1c(F)ccc(F)c1Cl` — recorded %Inh = 0

Entry `Oc1cc(Nc2ccnc3cc(I)ccc23)ccc1F` — recorded %Inh = 0

Entry `CN(C)S(=O)(=O)c1cc(-c2ccc3nccc(-c4cccc(S(N)(=O)=O)c4)c3c2)cnc1N` — recorded %Inh = 45

###

Each record here notes measured %Inh.
System: NEK4
measurementConditions: concentration: 1 μM, replicates: in singlicate; n = 1
Report the figure in % without appending any unit label.

Example entries begin here.
Cc1occc1-c1ncc(OC[C@@H](N)Cc2c[nH]c3ccccc23)cc1-c1ccc2[nH]nc(C)c2c1.O=C(O)C(F)(F)F : 0
Cc1ccc(S(=O)(=O)Nc2ccc(Nc3nccc(Nc4cccc5[nH]ncc45)n3)cc2)cc1 : 20
O=C(Nc1n[nH]c2nc(-c3ccc(O)cc3)ccc12)C1CC1 : 2

Please look at the following compound next.
Entry `CC(C)c1nc(-c2cccc(NS(=O)(=O)c3c(F)cccc3F)c2F)c(-c2ccnc(Nc3ccc(N4CCOCC4)nc3)n2)s1` — recorded %Inh = 51

###

System: RSK1(Kin.Dom.1-N-terminal)
Construct: gene RPS6KA1
measurementConditions: concentration: 1 μM, replicates: in singlicate; n = 1
Each record here notes measured %Inh.
Report the figure in % without appending any unit label.

Example entries begin here.
O=C(Nc1ccccc1F)NC1CCN(c2ccnc(Nc3ccc(F)cc3)n2)CC1 : 19
CN(C)S(=O)(=O)c1cc(-c2ccc3nccc(-c4cccc(S(N)(=O)=O)c4)c3c2)cnc1N : 0
Cc1cccc(Nc2nc(N[C@H]3CCNC3)ncc2C(N)=O)c1.Cl : 22
COc1ccc(Nc2nccc(NCCNC(=O)c3cc4ccccc4s3)n2)cc1 : 0
COCCOCCOc1cc2ncc3c4ccc(C#N)cc4[nH]c3c2cc1OC : 0
Cl.c1ccc(-c2ccc3c(Nc4ccc5[nH]ncc5c4)ccnc3c2)nc1 : 20

Entry `Nc1ncc(-c2ccc3nccc(-c4ccncc4)c3c2)cc1S(=O)(=O)N1CCOCC1` — recorded %Inh = 14

Entry `O=C(Nc1cccc(-c2nn3ccccc3c2-c2ccnc(Nc3cccc(C(F)(F)F)c3)n2)c1)c1c(F)cccc1F` — recorded %Inh = 81

Entry `c1ccc(-c2cnc3nccnn23)cc1` — recorded %Inh = 0

Entry `Cn1cc(-c2[nH]c3cc(NC(=O)[C@H](N)C4CCCCC4)cc4c3c2C=NNC4=O)cn1` — recorded %Inh = 60

Entry `Cc1occc1-c1ncc(OC[C@@H](N)Cc2c[nH]c3ccccc23)cc1-c1ccc2[nH]nc(C)c2c1.O=C(O)C(F)(F)F` — recorded %Inh = 7

Entry `CC(C)(C)c1ccc2nccc(Nc3cccc(O)c3)c2c1` — recorded %Inh = 0

Entry `c1ccc(-c2n[nH]cc2Nc2ccnc3ccccc23)nc1` — recorded %Inh = 19

Entry `CN1CCN(Cc2cccc(-c3ccc4c(Nc5ccc(Oc6ccccc6)cc5)ccnc4c3)c2)CC1` — recorded %Inh = 26

Entry `Cc1ccc(S(=O)(=O)Nc2ccc(Nc3nccc(Nc4cccc5[nH]ncc45)n3)cc2)cc1` — recorded %Inh = 1

Entry `Cc1cccc(NC(=O)Nc2ccc(Oc3ncnc4ccn(C)c34)cc2)c1` — recorded %Inh = 0

Entry `O=C(Nc1cccc(-c2nn3ncccc3c2-c2ccnc(Nc3ccccc3)n2)c1)c1c(F)cccc1F` — recorded %Inh = 95.3

Entry `O=C(Nc1cccc(Oc2ccc3nc(NC(=O)C4CC4)cn3n2)c1)c1ccccc1C(F)(F)F` — recorded %Inh = 6

###

Test system: AURKC
measurementConditions: concentration: 1 μM, replicates: in singlicate; n = 1
param class (str): category from %Inh; see ranges low bin = under 20%, mid bin = from 20% up to 70%, high bin = 70% and over

These recorded examples may help you get a feel for the data.
COc1cccc(NC(=O)NC2CCN(c3ccnc(Nc4cc(OC)c(OC)c(OC)c4)n3)C2)c1 (centres unmarked) : high bin
Cc1cccc(NC(=O)Nc2ccc(Oc3ncnc4ccn(C)c34)cc2)c1 : high bin
CCCCc1nn2ncccc2c1-c1ccnc(Nc2ccc(N3CCN(C)CC3)cc2)n1 : high bin
COc1ccc(Nc2nccc(N3CCC(NC(=O)Nc4cccc(OC)c4)C3)n2)cc1 (centres unmarked) : low bin

q: Category of `CSc1cccc2c(-c3ccncn3)c(-c3ccc(F)cc3)nn12` :
a: low bin

q: Category of O=C(NC1CCN(c2ccnc(Nc3ccc(F)cc3)n2)C1)c1cc2ccccc2s1 (centres unmarked) :
a: mid bin

q: Category of `Nc1ncc(-c2ccc3nccc(-c4ccncc4)c3c2)cc1S(=O)(=O)N1CCOCC1` :
a: low bin

q: Category of `COc1cccc(C2=C(Nc3ccc(Cl)c(C(=O)O)c3)C(=O)NC2=O)c1` :
a: mid bin

q: Category of `C[C@@H]1CC[C@@H](C(=O)Nc2ccccc2)CN1c1cc(-c2ccc3c(N)n[nH]c3c2)nc(N)n1` :
a: mid bin

q: Category of `O=C(Nc1cccc(-c2nn3ccccc3c2-c2ccnc(Nc3cccc(F)c3)n2)c1)c1c(F)ccc(F)c1Cl` :
a: mid bin

q: Category of `Cc1ccc(F)c(C(=O)Nc2cccc(-c3nn4ccccc4c3-c3ccnc(Nc4cccc(F)c4)n3)c2)c1F` :
a: mid bin

q: Category of `O=C(O)C(F)(F)F.O=C(O)C(F)(F)F.O=c1[nH]ccc2nc(N[C@@H]3CCCNC3)nc(Nc3ccc(S(=O)(=O)N4CCOCC4)cc3)c12` :
a: high bin
